# system under test: ABL1 (T315I) (Homo sapiens, UniProt P00519, T315I)
# protocol details: Luminescence-based ABL kinase assay (300 μM ATP), ADP-Glo
# Assay type: biochemical

compound: COc1ccccc1-c1cc2cc(NC(=O)NCCN3CCOCC3)ncc2n1C
IC50 (nM): 193

compound: COc1ccnc(OC)c1-c1cc2cc(NC(=O)[C@@H]3C[C@H]3CN(C)C)ncc2n1C (single isomer, unassigned)
IC50 (nM): 52.8

compound: COc1ncc(F)c(OC)c1-c1cc2cc(NC(=O)[C@@H]3C[C@H]3CN(C)C)ncc2n1C (single isomer, unassigned)
IC50 (nM): 58.1

compound: [2H]C([2H])([2H])n1c(-c2cc(F)cnc2OC)cc2cc(NC(=O)[C@@H]3C[C@@H]3F)ncc21
IC50 (nM): 47.6

compound: COc1nccc(F)c1-c1cc2cc(NC(=O)[C@@H]3C[C@@H]3F)ncc2n1C
IC50 (nM): 15

compound: CCNC(=O)Nc1cc2cc(-c3ccccc3OC)n(C)c2cn1
IC50 (nM): 148

compound: Cc1cc2[nH]ncc2cc1-c1cc2cc(NC(=O)C3CC3)ncc2n1C
IC50 (nM): 545
